Source: patent US9539219B2

# ASSAY_OVERVIEW: Pharmacokinetic study of the chylomicron and micelle compositions in rats (gavage and i.v.)
# Assay type: in vivo, male Sprague-Dawley rats
# EXPERIMENTAL_CONTEXT: male, Sprague-Dawley, rat, in vivo, po, 14.3 mg/kg, AUC
EXPERIMENTAL_READOUT: AUC (ng·h/mL)

{"STRUCTURE": "CC(C)=CCC/C(C)=C/C=C/C(C)=C/C=C/C(C)=C/C=C/C=C(C)/C=C/C=C(C)/C=C/C=C(\\C)CCC=C(C)C", "ENDPOINT_RESULT": 8270}

###

# ASSAY_OVERVIEW: Pharmacokinetic study of the chylomicron and micelle compositions in rats (gavage and i.v.)
# Format: in vivo, male Sprague-Dawley rats
# EXPERIMENTAL_CONTEXT: male, Sprague-Dawley, rat, in vivo, po, 14.3 mg/kg, Cmax

{"COMPOUND": "CC(C)=CCC/C(C)=C/C=C/C(C)=C/C=C/C(C)=C/C=C/C=C(C)/C=C/C=C(C)/C=C/C=C(\\C)CCC=C(C)C [Solanorubin, solanorubin]", "Cmax (µg/mL)": 0.27}
